Reference for the values: the supplement of paper PMC11061612

Item-by-item account of combination Emax
tested on: COLO-205 (Colorectal Carcinoma); experiment: combination Emax (second highest fraction inhibited in the dose matrix, 72 h); higher = more inhibition; extreme values may be limits of the assay

Here is how some compounds turned out for combination Emax.
{"columns": ["Compound", "combination Emax"],
 "data": [
  ["COc1nnc2ccc(N3CCC(c4ccc(OCCN5CCN(C)C(=O)[C@H]5C)cc4)CC3)nn12 [AZD5153] + CC1(C)CCC(CN2CCN(c3ccc(C(=O)NS(=O)(=O)c4ccc(NCC5CCOCC5)c([N+](=O)[O-])c4)c(Oc4cnc5[nH]ccc5c4)c3)CC2)=C(c2ccc(Cl)cc2)C1 [Venetoclax] (first compound max 1 µM, 7x7, partner max 1 µM)", 0.566],
  ["COc1cccc2c1C(=O)c1c(O)c3c(c(O)c1C2=O)C[C@@](O)(C(=O)CO)C[C@@H]3O[C@H]1C[C@H](N)[C@H](O)[C@H](C)O1 [Doxorubicin] + Cc1cc2ncnn2cc1Nc1ncc2c(n1)n(C1CCOCC1)c(=O)n2C [AZD7648] (first compound max 1 µM, 7x7, partner max 10 µM)", 0.727],
  ["CN(CCO)CC[C@H](CSc1ccccc1)Nc1ccc(S(=O)(=O)NC(=O)c2ccc(N3CCC([C@@H](O)c4ccccc4-c4ccc(Cl)cc4)CC3)cc2)cc1S(=O)(=O)C(F)(F)F [AZD4320] + CCN(CCO)CCCOc1ccc2c(Nc3cc(CC(=O)Nc4cccc(F)c4)[nH]n3)ncnc2c1 [AZD2811] (first compound max 1 µM, 7x7, partner max 1 µM)", 0.974]
]}

Need combination Emax, item Cc1cc2ncnn2cc1Nc1ncc2c(n1)n(C1CCOCC1)c(=O)n2C [AZD7648] + O=C(c1cc(Cc2n[nH]c(=O)c3ccccc23)ccc1F)N1CCN(C(=O)C2CC2)CC1 [Olaparib] (first compound max 10 µM, 7x7, partner max 10 µM)
0.0328

Need combination Emax, item CC1(C)CCC(CN2CCN(c3ccc(C(=O)NS(=O)(=O)c4ccc(NCC5CCOCC5)c([N+](=O)[O-])c4)c(Oc4cnc5[nH]ccc5c4)c3)CC2)=C(c2ccc(Cl)cc2)C1 [Venetoclax] + C[C@@H](Nc1cc(F)cc(F)c1)c1cc(C(=O)N(C)C)cc2c(=O)cc(N3CCOCC3)oc12 [AZD8186] (first compound max 1 µM, 7x7, partner max 3 µM)
0.285

Need combination Emax, item NC1(C(=O)N[C@@H](CCO)c2ccc(Cl)cc2)CCN(c2ncnc3[nH]ccc23)CC1 [Capivasertib] + CC(C)n1c(=O)n(C)c2cnc3cc(F)c(-c4ccc(OCCCN5CCCCC5)nc4)cc3c21 [AZD1390] (first compound max 10 µM, 7x7, partner max 0.3 µM)
0.416

###

test system: EC-GI-10 (Esophageal Squamous Cell Carcinoma); test: Bliss excess, mean over the matrix (fraction); higher = more synergy
Experimental endpoint: Bliss excess
Could you keep your reply to the number by itself?

{"columns": ["Compound", "Recorded result"],
 "data": [
  ["CN(CCO)CC[C@H](CSc1ccccc1)Nc1ccc(S(=O)(=O)NC(=O)c2ccc(N3CCC([C@@H](O)c4ccccc4-c4ccc(Cl)cc4)CC3)cc2)cc1S(=O)(=O)C(F)(F)F [AZD4320] + CN(C)CCCOc1ccc(-c2ccc3ncc4c(c3c2)n(C2CCOCC2)c(=O)n4C)cn1 [AZD0156] (first compound max 1 µM, 7x7, partner max 1 µM)", -0.0333]
]}

Now take the following compound into account.
Query Bliss excess on EC-GI-10 (Esophageal Squamous Cell Carcinoma) for NC1(C(=O)N[C@@H](CCO)c2ccc(Cl)cc2)CCN(c2ncnc3[nH]ccc23)CC1 [Capivasertib] + CC(C)n1c(=O)n(C)c2cnc3cc(F)c(-c4ccc(OCCCN5CCCCC5)nc4)cc3c21 [AZD1390] (first compound max 10 µM, 7x7, partner max 0.3 µM)
-0.0418

###

Item-by-item account of Bliss excess
tested on: 42-MG-BA (Glioblastoma); assay: Bliss excess, mean over the matrix (fraction); higher = more synergy
Could you keep your reply to the number by itself?

Here is how some compounds turned out for Bliss excess.
{"columns": ["Compound", "Test system", "Bliss excess"],
 "data": [
  ["C[C@@H]1COCCN1c1cc(C2([S@](C)(=N)=O)CC2)nc(-c2ccnc3[nH]ccc23)n1 [AZD6738] + O=C(c1cc(Cc2n[nH]c(=O)c3ccccc23)ccc1F)N1CCN(C(=O)C2CC2)CC1 [Olaparib] (first compound max 10 µM, 7x7, partner max 10 µM)", "42-MG-BA (Glioblastoma)", 0.0142],
  ["COc1nnc2ccc(N3CCC(c4ccc(OCCN5CCN(C)C(=O)[C@H]5C)cc4)CC3)nn12 [AZD5153] + Cc1c2c(nn1C)CSCc1cc(n(C)n1)CSc1cc(c3ccccc3c1)OCCCc1c(C(=O)O)n(C)c3c-2c(Cl)ccc13 [AZD5991] (first compound max 1 µM, 7x7, partner max 1 µM)", "42-MG-BA (Glioblastoma)", 0.0576]
]}

Need Bliss excess, item CCN(CCO)CCCOc1ccc2c(Nc3cc(CC(=O)Nc4cccc(F)c4)[nH]n3)ncnc2c1 [AZD2811] + C[C@@H]1COCCN1C2=NC(=NC(=C2)C3(CC3)[S@](=N)(=O)C)C4=C5C=CNC5=NC=C4 [AZD6738] (first compound max 1 µM, 7x7, partner max 10 µM)
0.037

Need Bliss excess, item CCc1c2c(nc3ccc(O)cc13)-c1cc3c(c(=O)n1C2)COC(=O)[C@]3(O)CC [SN-38] + O=C(c1cc(Cc2n[nH]c(=O)c3ccccc23)ccc1F)N1CCN(C(=O)C2CC2)CC1 [Olaparib] (first compound max 0.3 µM, 7x7, partner max 10 µM)
0.0749

Need Bliss excess, item Cn1cnc2c(F)c(Nc3ccc(Br)cc3Cl)c(C(=O)NOCCO)cc21 [Selumetinib] + CCN(CCO)CCCOc1ccc2c(Nc3cc(CC(=O)Nc4cccc(F)c4)[nH]n3)ncnc2c1 [AZD2811] (first compound max 10 µM, 7x7, partner max 1 µM)
-0.0458

Need Bliss excess, item Cn1cnc2c(F)c(Nc3ccc(Br)cc3Cl)c(C(=O)NOCCO)cc21 [Selumetinib] + CC(C)n1c(=O)n(C)c2cnc3cc(F)c(-c4ccc(OCCCN5CCCCC5)nc4)cc3c21 [AZD1390] (first compound max 10 µM, 7x7, partner max 0.3 µM)
-0.0321

Need Bliss excess, item COc1cccc(OCCCN)c1-c1cc(Nc2cnc(C#N)cn2)n[nH]1 [Prexasertib] + C[C@@H]1COCCN1C2=NC(=NC(=C2)C3(CC3)[S@](=N)(=O)C)C4=C5C=CNC5=NC=C4 [AZD6738] (first compound max 1 µM, 7x7, partner max 10 µM)
-0.0994

###

tested on: COLO-205 (Colorectal Carcinoma); assay: Bliss excess, mean over the matrix (fraction); higher = more synergy
Experimental endpoint: Bliss excess
Could you keep your reply to the number by itself?

Here is how some compounds turned out for Bliss excess.
{"columns": ["Compound", "Bliss excess"],
 "data": [
  ["C[C@@H](c1ccc2nccn2c1)n1nnc2ncc(-c3cnn(C)c3)nc21 [Savolitinib] + CN(CC[C@H](CSC1=CC=CC=C1)NC2=C(C=C(C=C2)S(=O)(=O)NC(=O)C3=CC=C(C=C3)N4CCC(CC4)[C@H](C5=CC=CC=C5C6=CC=C(C=C6)Cl)O)S(=O)(=O)C(F)(F)F)CCO [AZD4320] (first compound max 1 µM, 7x7, partner max 1 µM)", -0.043],
  ["CC1(C)CCC(CN2CCN(c3ccc(C(=O)NS(=O)(=O)c4ccc(NCC5CCOCC5)c([N+](=O)[O-])c4)c(Oc4cnc5[nH]ccc5c4)c3)CC2)=C(c2ccc(Cl)cc2)C1 [Venetoclax] + C[C@@H](Nc1cc(F)cc(F)c1)c1cc(C(=O)N(C)C)cc2c(=O)cc(N3CCOCC3)oc12 [AZD8186] (first compound max 1 µM, 7x7, partner max 3 µM)", 0.0279]
]}

Now take the following compound into account.
Need Bliss excess, item CN(CCO)CC[C@H](CSc1ccccc1)Nc1ccc(S(=O)(=O)NC(=O)c2ccc(N3CCC([C@@H](O)c4ccccc4-c4ccc(Cl)cc4)CC3)cc2)cc1S(=O)(=O)C(F)(F)F [AZD4320] + C=CCn1c(=O)c2cnc(Nc3ccc(N4CCN(C)CC4)cc3)nc2n1-c1cccc(C(C)(C)O)n1 [AZD1775] (first compound max 1 µM, partner max 1 µM)
0.0243

###

system: TE-9 (Esophageal Squamous Cell Carcinoma); experiment: Bliss excess, mean over the matrix (fraction); higher = more synergy
Bliss excess below -0.006 gives NOT MET; Bliss excess at or above it gives MET.

Decide: Bliss excess of CS(=O)(=O)CCNCc1ccc(-c2ccc3ncnc(Nc4ccc(OCc5cccc(F)c5)c(Cl)c4)c3c2)o1 [Lapatinib] + C[C@@H](Oc1cc(-c2cnn(C3CCNCC3)c2)cnc1N)c1c(Cl)ccc(F)c1Cl [Crizotinib] (first compound max 10 µM, 7x7, partner max 10 µM) >= -0.006?
NOT MET

Decide: Bliss excess of CN(CCO)CC[C@H](CSc1ccccc1)Nc1ccc(S(=O)(=O)NC(=O)c2ccc(N3CCC([C@@H](O)c4ccccc4-c4ccc(Cl)cc4)CC3)cc2)cc1S(=O)(=O)C(F)(F)F [AZD4320] + C[C@@H]1COCCN1C2=NC(=NC(=C2)C3(CC3)[S@](=N)(=O)C)C4=C5C=CNC5=NC=C4 [AZD6738] (first compound max 1 µM, 7x7, partner max 10 µM) >= -0.006?
MET

Decide: Bliss excess of COc1cccc(OCCCN)c1-c1cc(Nc2cnc(C#N)cn2)n[nH]1 [Prexasertib] + CN(C)CCCOc1ccc(-c2ccc3ncc4c(c3c2)n(C2CCOCC2)c(=O)n4C)cn1 [AZD0156] (first compound max 1 µM, 7x7, partner max 1 µM) >= -0.006?
NOT MET

Decide: Bliss excess of CN(CCO)CC[C@H](CSc1ccccc1)Nc1ccc(S(=O)(=O)NC(=O)c2ccc(N3CCC([C@@H](O)c4ccccc4-c4ccc(Cl)cc4)CC3)cc2)cc1S(=O)(=O)C(F)(F)F [AZD4320] + CC(=O)O[C@H]1C(=O)[C@@]2(C)[C@H]([C@H](OC(=O)c3ccccc3)[C@]3(O)C[C@H](OC(=O)[C@H](O)[C@@H](NC(=O)c4ccccc4)c4ccccc4)C(C)=C1C3(C)C)[C@]1(OC(C)=O)CO[C@@H]1C[C@@H]2O [Paclitaxel] (first compound max 1 µM, 7x7, partner max 3 µM) >= -0.006?
MET

Decide: Bliss excess of Cn1cnc2c(F)c(Nc3ccc(Br)cc3Cl)c(C(=O)NOCCO)cc21 [Selumetinib] + C[C@@H]1COCCN1C2=NC(=NC(=C2)C3(CC3)[S@](=N)(=O)C)C4=C5C=CNC5=NC=C4 [AZD6738] (first compound max 10 µM, 7x7, partner max 10 µM) >= -0.006?
NOT MET
